Taken from patent US20180111913A1.

test system: Mtb strain mc^27000; experiment: microbe, parasite or virus in culture; format: cell-based, Mycobacterium tuberculosis; settings: Mycobacterium tuberculosis, Mtb mc^27000, liquid medium, 96-well plates; read-out: MIC
experimental.readout: MIC (µM)
Give the number; µM is assumed, so skip it.

1. Oc1ccc2nc(-c3ccccc3)[nH]c2c1CN1CCCC1 | 22

Supply reported MIC belonging to this molecule: CNC(=O)c1c(-c2ccc(O)cc2)oc2ccc(O)c(CN3CCC(O)CC3)c12
4.2

Quote MIC reported for CNC(=O)c1c(-c2ccc(O)cc2)oc2ccc(O)c(CCCN3CCC3)c12 please.
15

Read off the recorded MIC for CCOC(=O)c1c(-c2cc(F)c(O)c(F)c2)oc2ccc(O)c(CN3CCCCC3)c12
7

Please report the measured MIC for CNC(=O)c1c(-c2ccccc2)oc2ccc(O)c(CCCN3CCCC3)c12
5

###

tested on: Mtb strain mc^27000; assay: microbe, parasite or virus in culture; assay type: cell-based, Mycobacterium tuberculosis; settings: Mycobacterium tuberculosis, Mtb mc^27000, liquid medium, 96-well plates; read-out: MIC
Quick reference for MIC among some molecules
Unit µM implied. Number only.

Worked examples follow.
1) CCOC(=O)c1c(-c2ccc(O)cc2)oc2cc(O)cc(CN3CCCCC3)c12 | 1.1
2) CNC(=O)c1c(-c2ccccc2)oc2ccc(O)c(CCCN3CCC3)c12 | 0.6

Give the measured MIC for CNC(=O)c1c(-c2ccc(O)cc2)oc2cc(O)cc(CN3CCCCC3)c12
1

###

target: Mtb Pks13-TE domain (wild-type) (Mycobacterium tuberculosis, UniProt I6X8D2); test: biochemical; format: biochemical; details: Pks13-TE; read-out: IC50 (unit inferred)
Sequence (I6X8D2 1451-1733): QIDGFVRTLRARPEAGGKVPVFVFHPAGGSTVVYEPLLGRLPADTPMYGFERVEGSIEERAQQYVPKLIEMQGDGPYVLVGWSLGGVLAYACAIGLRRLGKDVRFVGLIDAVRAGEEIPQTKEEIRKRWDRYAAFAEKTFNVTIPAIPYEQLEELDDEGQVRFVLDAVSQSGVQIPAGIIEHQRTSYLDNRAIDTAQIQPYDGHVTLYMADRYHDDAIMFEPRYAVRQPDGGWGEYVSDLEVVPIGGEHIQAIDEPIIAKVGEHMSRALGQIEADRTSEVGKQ
experimental.readout: IC50

Please look at this compound and report its IC50: CCOC(=O)c1c(-c2ccccc2)oc2ccc(OC)c(CN3CCCCC3)c12
~36 µM

###

system: Mtb strain mc^27000; assay: microbe, parasite or virus in culture; type: cell-based, Mycobacterium tuberculosis; conditions: Mycobacterium tuberculosis, Mtb mc^27000, liquid medium, 96-well plates; read-out: MIC
Entries whose MIC is below 3 µM take satisfied; entries at or above 3 µM take not satisfied.

Before answering, review these 3 worked examples.
1. CNC(=O)c1c(-c2ccccc2)oc2ccc(O)c(CN3CCCC(CO)C3)c12 (centres unmarked) | satisfied
2. CCOC(=O)c1c(-c2ccccc2)oc2cc(Cc3ccccc3)c(O)cc12 | not satisfied
3. CCOC(=O)c1c(-c2ccccc2)oc2cc(O)cc(CN3CCCCC3)c12 | not satisfied

Does this compound meet the criterion MIC < 3 µM? CCOC(=O)c1c(-c2ccccc2)oc2ccc(O)c(CCN3CCOCC3)c12
not satisfied

###

target: Mtb Pks13-TE domain (wild-type) (Mycobacterium tuberculosis); assay: biochemical; type: biochemical; conditions: Pks13-TE, 20 μM 4-MUH; read-out: IC50
Measured pIC50 accompanies every entry in the list below.
Note on units: pIC50 is unitless, being -log10 of a concentration expressed in mol/L.

The following compounds have reported results that may help.
1. COC(=O)n1c(-c2ccccc2)c(Br)c2cccc(CN3CCCCC3)c21 [compound 108] | 5.70
2. CCOC(=O)c1c(-c2ccccc2)oc2ccc(O)c(CCN3CCC(CCCC(N)=O)C3)c12 (centres unmarked) [compound 187] | 6.30

Consider the compound CCOC(=O)c1c(-c2ccc(C(N)=O)cc2)oc2ccc(O)c(CN3CCCCC3)c12 [compound 60] . State its measured pIC50.
6.52

Identify pIC50 associated with the compound CN(C)C(=O)c1c(-c2ccc(O)cc2)oc2cc(O)cc(CCCN3CCC3)c12 [compound 208]
5.40

Assign pIC50 to the following record: CNC(=O)c1c(-c2ccc(O)cc2)oc2ccc(O)c(CN3CCC(C(N)=O)CC3)c12 [compound 123]
5.80
